Target: XIAP BIR-3 (Homo sapiens, UniProt P98170)
Construct: 40 nM of the respective IAP BIR3
Sequence (P98170 241-356 limits assumed): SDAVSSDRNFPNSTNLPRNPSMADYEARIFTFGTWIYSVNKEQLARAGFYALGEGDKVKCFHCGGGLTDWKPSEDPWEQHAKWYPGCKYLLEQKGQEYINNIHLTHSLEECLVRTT
Experiment: Fluorescence polarization binding to XIAP BIR-3 with labeled peptide AbuRPF-K(5-Fam)-NH2
Settings: XIAP BIR-3, 40 nM BIR3, 5 nM labeled peptide, 15 min RT, pH 7.5; read-out: XIAP, nM (binding affinity KD, as range)
RESULT_TYPE: Kd

CN[C@@H](C)C(=O)N[C@H](C(=O)N1CC[C@@H]2[C@H]1[C@@H](C(=O)N[C@H]1CCCc3ccccc31)CN2S(C)(=O)=O)C(C)(C)C	< 100 nM
CN[C@@H](C)C(=O)N[C@H](C(=O)N1CC[C@@H]2[C@H]1[C@@H](C(=O)Nc1ccc3ccccc3n1)CN2S(C)(=O)=O)C(C)(C)C	100 to 1000 nM
CN[C@@H](C)C(=O)N[C@H](C(=O)N1CC[C@@H]2[C@H]1[C@@H](C(=O)Nc1cccc3ccccc13)CN2C(C)=O)C(C)(C)C	< 100 nM
CN[C@@H](C)C(=O)N[C@H](C(=O)N1CC[C@@H]2[C@H]1[C@@H](C(=O)N[C@@H](C)C1CCCCC1)CN2S(C)(=O)=O)C(C)(C)C	< 100 nM
CN[C@@H](C)C(=O)N[C@H](C(=O)N1CC[C@@H]2[C@H]1[C@@H](C(=O)Nc1ccc3ccccc3c1)CN2S(C)(=O)=O)C1CCCCC1	100 to 1000 nM

Incoming: Give Kd (XIAP BIR-3 (Homo sapiens, UniProt P98170)) of the following compound: CN[C@@H](C)C(=O)N[C@H](C(=O)N1CC[C@@H]2[C@H]1[C@@H](C(=O)N[C@@H]1CCCc3ccccc31)CN2c1ncccn1)C1CCCCC1
Outgoing: 100 to 1000 nM

Incoming: Give Kd (XIAP BIR-3 (Homo sapiens, UniProt P98170)) of the following compound: CNC(C)C(=O)NC(C(=O)N1CCC2C1C(C(=O)NC1CCCc3ccccc31)CN2C(=O)C1CC1)C1CCCCC1 (stereo not shown)
Outgoing: < 100 nM

---

Biological target: XIAP BIR-3 (Homo sapiens, UniProt P98170)
Construct: 40 nM of the respective IAP BIR3
Assay: Fluorescence polarization binding to XIAP BIR-3 with labeled peptide AbuRPF-K(5-Fam)-NH2
Conditions: XIAP BIR-3, 40 nM BIR3, 5 nM labeled peptide, 15 min RT, pH 7.5; read-out: XIAP, nM (binding affinity KD, as range)
# maps each entry to its Kd

CN[C@@H](C)C(=O)N[C@H](C(=O)N1CC[C@@H]2[C@H]1[C@@H](C(=O)NCCc1ccccc1)CN2S(C)(=O)=O)C1CCCCC1	< 100 nM

Incoming: Give Kd (XIAP BIR-3 (Homo sapiens, UniProt P98170)) of the following molecule: CN[C@@H](C)C(=O)N[C@H](C(=O)N1CC[C@@H]2[C@H]1[C@@H](C(=O)Nc1ccccc1)CN2S(C)(=O)=O)C(C)(C)C
Outgoing: < 100 nM

Incoming: Give Kd (XIAP BIR-3 (Homo sapiens, UniProt P98170)) of the following molecule: CN[C@@H](C)C(=O)N[C@H](C(=O)N1CC[C@@H]2[C@H]1[C@@H](C(=O)N[C@@H]1CCCc3ccccc31)CN2C(=O)OC)C1CCCCC1
Outgoing: < 100 nM

Incoming: Give Kd (XIAP BIR-3 (Homo sapiens, UniProt P98170)) of the following molecule: CN[C@@H](C)C(=O)N[C@H](C(=O)N1CC[C@@H]2[C@H]1[C@@H](C(=O)NCc1ccccc1)CN2S(C)(=O)=O)C(C)(C)C
Outgoing: < 100 nM

Incoming: Give Kd (XIAP BIR-3 (Homo sapiens, UniProt P98170)) of the following molecule: CN[C@@H](C)C(=O)N[C@H](C(=O)N1CC[C@@H]2[C@H]1[C@@H](C(=O)N[C@@H](Cc1ccccc1)C(=O)O)CN2S(C)(=O)=O)C1CCCCC1
Outgoing: 1000 to 10000 nM

Incoming: Give Kd (XIAP BIR-3 (Homo sapiens, UniProt P98170)) of the following molecule: CN[C@@H](C)C(=O)N[C@H](C(=O)N1CC[C@@H]2[C@H]1[C@@H](C(=O)Nc1cc(C)nc3ccccc13)CN2S(C)(=O)=O)C(C)(C)C
Outgoing: < 100 nM

Incoming: Give Kd (XIAP BIR-3 (Homo sapiens, UniProt P98170)) of the following molecule: CN[C@@H](C)C(=O)N[C@H](C(=O)N1CC[C@@H]2[C@H]1[C@@H](C(=O)N[C@@H]1CCc3ccccc31)CN2S(C)(=O)=O)C1CCCCC1
Outgoing: 100 to 1000 nM

Incoming: Give Kd (XIAP BIR-3 (Homo sapiens, UniProt P98170)) of the following molecule: CN[C@@H](C)C(=O)N[C@H](C(=O)N1CC[C@@H]2[C@H]1[C@@H](C(=O)NC1CCCCC1)CN2S(C)(=O)=O)C1CCCCC1
Outgoing: 1000 to 10000 nM

Incoming: Give Kd (XIAP BIR-3 (Homo sapiens, UniProt P98170)) of the following molecule: CN[C@@H](C)C(=O)N[C@H](C(=O)N1CC[C@@H]2[C@H]1[C@@H](C(=O)Nc1cnc3ccccc3c1)CN2S(C)(=O)=O)C(C)(C)C
Outgoing: 100 to 1000 nM

Incoming: Give Kd (XIAP BIR-3 (Homo sapiens, UniProt P98170)) of the following molecule: CN[C@@H](C)C(=O)N[C@H](C(=O)N1CC[C@@H]2[C@H]1[C@@H](C(=O)Nc1cc(C)nn1-c1ccccc1)CN2S(C)(=O)=O)C(C)(C)C
Outgoing: < 100 nM

Incoming: Give Kd (XIAP BIR-3 (Homo sapiens, UniProt P98170)) of the following molecule: CN[C@@H](C)C(=O)N[C@H](C(=O)N1CC[C@@H]2[C@H]1[C@@H](C(=O)Nc1cccc3cnccc13)CN2S(C)(=O)=O)C(C)(C)C
Outgoing: 100 to 1000 nM
